assay: Pharmacokinetic study of single administration in mice; type: in vivo; conditions: male, mouse, plasma; IV, 2 mg/kg, CD-1 mice; read-out: Apparent volume of distribution
Measured Quantity: Vd
State the result as a value with its unit after it.

Query: Return Vd (reported value) for this compound: CCc1c(N)c2ncc(CN3CCN(c4ccc(C(=O)NC)nc4)CC3)cc2[nH]c1=O [Example 1]
Reply: 0.218 L/kg

---

target: PARP2 (Homo sapiens); construct: purchased BPS 80502; assay: PARP2-DNA trapping, fluorescence polarization (FP); type: biochemical; conditions: PARP2, 0.25 hour
Sequence (Q9UGN5 whole entry): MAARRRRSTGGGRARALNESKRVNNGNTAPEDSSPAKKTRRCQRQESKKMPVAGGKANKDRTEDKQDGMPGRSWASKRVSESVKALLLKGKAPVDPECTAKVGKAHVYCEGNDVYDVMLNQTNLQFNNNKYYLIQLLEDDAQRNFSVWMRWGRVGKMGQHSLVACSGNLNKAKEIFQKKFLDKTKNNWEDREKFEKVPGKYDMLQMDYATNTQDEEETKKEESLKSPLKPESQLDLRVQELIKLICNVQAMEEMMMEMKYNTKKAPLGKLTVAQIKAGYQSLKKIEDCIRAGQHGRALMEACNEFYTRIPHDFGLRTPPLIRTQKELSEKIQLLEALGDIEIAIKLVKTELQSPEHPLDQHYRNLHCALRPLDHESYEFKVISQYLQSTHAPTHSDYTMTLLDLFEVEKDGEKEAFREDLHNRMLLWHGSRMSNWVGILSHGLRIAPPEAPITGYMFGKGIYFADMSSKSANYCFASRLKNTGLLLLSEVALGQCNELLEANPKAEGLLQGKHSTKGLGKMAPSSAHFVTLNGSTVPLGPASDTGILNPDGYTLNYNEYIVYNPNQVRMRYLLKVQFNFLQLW
Measured Quantity: EC50 (nM)
Numbers only, in nM.

Query: Give the reported value of EC50 for this record: [2H]C([2H])([2H])NC(=O)c1ccc(N2CCN(Cc3cnc4c(N)c(CC)c(=O)[nH]c4c3)CC2)c(F)n1
Reply: 2330

---

experiment: Pharmacokinetic study of single administration in mice; type: in vivo; details: male, mouse, plasma; PO, 10 mg/kg, CD-1 mice
Measured Quantity: half-life (h)
One number for each entry, in h.

Query: For the compound CCc1c(N)c2ncc(CN3CCN(c4ccc(C(=O)NC)nc4)CC3)cc2[nH]c1=O [Example 1] , give its reported half-life.
Reply: 3.51

---

Recorded below: IC50, system PARP2 (Homo sapiens, UniProt Q9UGN5).
Give bare numbers, in nM.

CCc1c(N)c2ncc(CN3CCN(c4ccc(C(=O)NOC)nc4F)CC3)cc2[nH]c1=O; 17
[2H]C([2H])([2H])NC(=O)c1ccc(N2CCN(Cc3cnc4c(N)c(CC)c(=O)[nH]c4c3)CC2)c(F)n1; 18.6
CCc1c(N)c2ncc(CN3CCN(c4ccc(C(=O)NC)nc4F)CC3)cc2[nH]c1=O; 8.7

Query: Return IC50 for the following molecule: CCc1c(N)c2ncc(CN3CCN(c4ccc(C(=O)NC)nc4)CC3)cc2[nH]c1=O
Reply: 52.8

---

Answer each item with its documented IC50.
tested on: A549 WT; experiment: Cellular PARylation inhibition, high-content imaging, A549 WT; format: cell-based; conditions: Homo sapiens, PARylation at the cellular level
Numbers only, in nM.

Please review the following examples before continuing.
CCc1c(N)c2ncc(CN3CCN(c4ccc(C(=O)NC)nc4F)CC3)cc2[nH]c1=O; 5.9
CCc1c(N)c2ncc(CN3CCN(c4ccc(C(=O)NOC)nc4F)CC3)cc2[nH]c1=O; 10.5
CCc1cc2ncc(CN3CCN(c4ccc(C(=O)NC)nc4)CC3)cc2[nH]c1=O [AZD5305, reference compound]; 2.2
CCc1c(N)c2ncc(CN3CCN(c4ccc(C(=O)NC)nc4)CC3)cc2[nH]c1=O; 14.4

Query: For [2H]C([2H])([2H])NC(=O)c1ccc(N2CCN(Cc3cnc4c(N)c(CC)c(=O)[nH]c4c3)CC2)c(F)n1 , write its IC50.
Reply: 5.2

---

target: PARP1 (Homo sapiens); construct: purchased BPS 80501; experiment: PARP1-DNA trapping, fluorescence polarization (FP); format: biochemical; settings: PARP1, 54 hour
Measured Quantity: EC50 (nM)
Answers are plain numbers, in nM.

Query: Note EC50 for the molecule shown: [2H]C([2H])([2H])NC(=O)c1ccc(N2CCN(Cc3cnc4c(N)c(CC)c(=O)[nH]c4c3)CC2)c(F)n1
Reply: 9.54

---

target: PARP1 (Homo sapiens); construct: purchased BPS 80501; test: PARP1-DNA trapping, fluorescence polarization (FP); type: biochemical; conditions: PARP1, 30 hour
Measured Quantity: EC50

Query: Supply EC50 value. Item: [2H]C([2H])([2H])NC(=O)c1ccc(N2CCN(Cc3cnc4c(N)c(CC)c(=O)[nH]c4c3)CC2)c(F)n1
Reply: 5.46 nM

---

molecular target: PARP1 (Homo sapiens, UniProt P09874); construct: purchased BPS 80501; experiment: PARP1-DNA trapping, fluorescence polarization (FP); format: biochemical; settings: PARP1, 1 hour
Sequence (P09874 whole entry): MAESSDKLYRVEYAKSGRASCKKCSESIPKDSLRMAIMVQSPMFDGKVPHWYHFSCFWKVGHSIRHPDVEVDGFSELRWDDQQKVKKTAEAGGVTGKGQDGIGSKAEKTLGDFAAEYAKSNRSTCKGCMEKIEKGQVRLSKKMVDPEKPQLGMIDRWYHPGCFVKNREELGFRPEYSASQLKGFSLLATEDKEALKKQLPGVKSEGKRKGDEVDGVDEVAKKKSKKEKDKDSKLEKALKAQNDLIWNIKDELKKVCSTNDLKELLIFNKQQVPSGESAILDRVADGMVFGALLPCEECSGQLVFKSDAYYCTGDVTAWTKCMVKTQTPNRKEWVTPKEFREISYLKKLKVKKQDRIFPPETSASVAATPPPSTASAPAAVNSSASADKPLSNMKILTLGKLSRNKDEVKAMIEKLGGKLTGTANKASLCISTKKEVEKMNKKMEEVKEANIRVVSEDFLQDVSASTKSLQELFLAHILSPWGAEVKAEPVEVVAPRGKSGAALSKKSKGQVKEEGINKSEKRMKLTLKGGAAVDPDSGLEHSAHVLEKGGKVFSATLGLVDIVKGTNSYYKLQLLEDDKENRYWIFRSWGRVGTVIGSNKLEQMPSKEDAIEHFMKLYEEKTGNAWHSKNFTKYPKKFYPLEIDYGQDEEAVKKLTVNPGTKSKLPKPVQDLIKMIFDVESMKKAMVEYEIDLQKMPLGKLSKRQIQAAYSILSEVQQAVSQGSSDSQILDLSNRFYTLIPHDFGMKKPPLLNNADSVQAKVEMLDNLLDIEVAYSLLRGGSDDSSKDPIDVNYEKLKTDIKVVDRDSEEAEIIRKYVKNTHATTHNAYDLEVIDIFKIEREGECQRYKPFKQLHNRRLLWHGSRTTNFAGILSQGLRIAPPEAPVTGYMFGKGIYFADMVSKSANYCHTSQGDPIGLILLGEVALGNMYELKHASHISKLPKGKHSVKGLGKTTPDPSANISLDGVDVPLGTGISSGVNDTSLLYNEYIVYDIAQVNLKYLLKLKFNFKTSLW
Measured Quantity: pEC50
Numbers only, as −log10 of the molar value.

Query: Look up and state reported pEC50 for [2H]C([2H])([2H])NC(=O)c1ccc(N2CCN(Cc3cnc4c(N)c(CC)c(=O)[nH]c4c3)CC2)c(F)n1 [Example 4]
Reply: 8.59
